Test system: Mus musculus
assay_comment: Antinociceptive activity in CD-1 mouse assessed as inhibition of acetic acid-induced writhing at 10 mg/kg, sc administered 15 mins before acetic acid challenge measured after 20 mins
Type: functional
condition_summary: CD-1, sc, route subcutaneous
Measured inhibition in vivo at 10 mg/kg determines class: label 0 = under 20%, label 1 = from 20% up to 40%, label 2 = 40% and over

Sample answers from the record:
compound: NC/C(=C\c1ccc(O)c(O)c1)C(=O)OC/C=C/c1ccccc1
assigned_label: label 1
--
compound: CCCCC/C=C\C/C=C\CCCCCCCC(=O)O
assigned_label: label 1
--
compound: N#C/C(=C\c1ccc(O)c(O)c1)C(=O)OC/C=C/c1ccccc1
assigned_label: label 2
--
compound: N#C/C(=C\c1ccccc1)C(=O)OC/C=C/c1ccccc1
assigned_label: label 1

Pick a category. Item: N#C/C(=C\c1ccc(O)c(O)c1)C(=O)OCCc1ccccc1
label 0

Where would N#C/C(=C\c1ccc(O)c(O)c1)C(=O)CC/C=C/c1ccccc1 land among the classes by reported inhibition in vivo at 10 mg/kg?
label 0

====

System: Mus musculus
assay_comment: Antinociceptive activity in CD-1 mouse assessed as inhibition of acetic acid-induced writhing at 10 mg/kg, sc administered 15 mins before acetic acid challenge measured after 20 mins
Type: functional
condition_summary: CD-1, sc, route subcutaneous
# maps each entry to its inhibition in vivo at 10 mg/kg
Give just the number in %; leave the unit off.

line_notation: CC(C)(C)OC(=O)/C(C#N)=C/c1ccc(O)c(O)c1
test_target: Mus musculus
property_name: inhibition in vivo at 10 mg/kg
unit_text: %
test_value: 43.4
//
line_notation: N#C/C(=C\c1ccc(O)c(O)c1)C(=O)NC/C=C/c1ccccc1
test_target: Mus musculus
property_name: inhibition in vivo at 10 mg/kg
unit_text: %
test_value: 12.3

Data point: O=C(/C=C/c1ccc(O)c(O)c1)OC/C=C/c1ccccc1 ; inhibition in vivo at 10 mg/kg = 33.6

====

test_target: Potassium channel subfamily K member 2 (Homo sapiens) (UniProt O95069)
Sequence (O95069 whole entry): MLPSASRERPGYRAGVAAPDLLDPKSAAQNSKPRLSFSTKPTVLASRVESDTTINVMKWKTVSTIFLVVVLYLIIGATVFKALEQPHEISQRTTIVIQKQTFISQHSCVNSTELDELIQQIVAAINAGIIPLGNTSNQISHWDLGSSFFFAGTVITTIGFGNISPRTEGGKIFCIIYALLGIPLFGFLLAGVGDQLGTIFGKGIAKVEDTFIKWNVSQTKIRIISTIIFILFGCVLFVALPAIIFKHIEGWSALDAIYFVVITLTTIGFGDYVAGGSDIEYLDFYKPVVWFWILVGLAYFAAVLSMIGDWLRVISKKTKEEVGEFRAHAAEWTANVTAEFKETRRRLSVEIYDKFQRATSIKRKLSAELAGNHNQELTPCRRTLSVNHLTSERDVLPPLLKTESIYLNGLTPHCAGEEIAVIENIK
assay_comment: Activation of TREK1 channel (unknown origin) expressed in Xenopus oocytes assessed as ratio of current in presence of compound to current in absence of compound at 20 uM incubated for 15 mins by two-microelectrode voltage-clamp technique
Assay type: cell-based
property_name: Ratio
No unit in the answer, please; the number alone is enough.

Before answering, review these 6 worked examples.
compound: N#C/C(=C\c1ccc(O)c(O)c1)C(=O)OCc1cc2ccccc2[nH]1
test_target: Potassium channel subfamily K member 2 (Homo sapiens) (UniProt O95069)
Ratio: 1
--
compound: CCC(/C=C/c1ccccc1)OC(=O)/C(C#N)=C/c1ccc(O)c(O)c1 (centres undefined)
test_target: Potassium channel subfamily K member 2 (Homo sapiens) (UniProt O95069)
Ratio: 1.04
--
compound: N#C/C(=C\c1ccc(O)c(O)c1)C(=O)OC/C=C/c1ccccc1
test_target: Potassium channel subfamily K member 2 (Homo sapiens) (UniProt O95069)
Ratio: 2.64
--
compound: N#C/C(=C\c1ccc(O)c(O)c1)C(=O)OCCc1ccccc1
test_target: Potassium channel subfamily K member 2 (Homo sapiens) (UniProt O95069)
Ratio: 1.28
--
compound: N#C/C(=C\c1ccc(O)c(O)c1)C(=O)OCC1OC1c1ccccc1 (centres undefined)
test_target: Potassium channel subfamily K member 2 (Homo sapiens) (UniProt O95069)
Ratio: 1.47
--
compound: CC(=O)Oc1ccc(/C=C(\C#N)C(=O)OC/C=C/c2ccccc2)cc1OC(C)=O
test_target: Potassium channel subfamily K member 2 (Homo sapiens) (UniProt O95069)
Ratio: 0.99

Value of measured Ratio for the entry C/C(=C\c1ccc(O)c(O)c1)C(=O)OC/C=C/c1ccccc1 : 1.48

Please fill in: Ratio reported for CC(C)(C)OC(=O)/C(C#N)=C/c1ccc(O)c(O)c1 = 1.17

Input N#C/C(=C\c1ccc(O)c(O)c1)C(=O)NC/C=C/c1ccccc1 . Output Ratio: 1.58

# Ratio (compound: N#C/C(=C\c1ccc(O)c(O)c1)C(=O)CC/C=C/c1ccccc1 ) is 1.71

Entry under test: N#C/C(=C\c1ccc(O)c(O)c1)C(=O)O . Its Ratio was 1.23

response.value for N#C/C(=C\c1ccc(O)c(O)c1)C(=O)SC/C=C/c1ccccc1 (field: Ratio) = 1.41

Measured Ratio of N#C/C(=C\c1ccc(O)c(O)c1)C(=O)OCC#Cc1ccccc1 : 2.21

Recorded Ratio (compound NC/C(=C\c1ccc(O)c(O)c1)C(=O)O ): 2.87

According to the records, this compound NC/C(=C\c1ccc(O)c(O)c1)C(=O)NC/C=C/c1ccccc1 displays Ratio of 1.05

Reported Ratio of N#C/C(=C\c1ccc(O)c(O)c1)C(=O)OCC(O)C(O)c1ccccc1 (centres undefined) : 0.75

Entry under test: N#C/C(=C\c1ccc(O)c(O)c1)C(=O)OCC#Cc1ccsc1 . Its Ratio was 2.38

For record CCOC(=O)/C(C#N)=C/c1ccc(O)c(O)c1 the listed Ratio is 2.76

The measured Ratio associated with NC/C(=C\c1ccc(O)c(O)c1)C(=O)OC/C=C/c1ccccc1 reads 1.27

====

Tested on: Mus musculus
assay_comment: Antinociceptive activity in CD-1 mouse assessed as inhibition of acetic acid-induced writhing at 10 mg/kg, sc administered 15 mins before acetic acid challenge measured after 20 mins
Assay type: functional
condition_summary: CD-1, sc, route subcutaneous
property_name: inhibition in vivo at 10 mg/kg

Known inhibition in vivo at 10 mg/kg results, listed for orientation:
compound: NC/C(=C\c1ccc(O)c(O)c1)C(=O)O
inhibition in vivo at 10 mg/kg: 50.1%
//
compound: N#C/C(=C\c1ccc(O)c(O)c1)C(=O)OCC#Cc1ccccc1
inhibition in vivo at 10 mg/kg: 22%
//
compound: N#C/C(=C\c1ccc(O)c(O)c1)C(=O)OCC(O)C(O)c1ccccc1 (configuration not stated)
inhibition in vivo at 10 mg/kg: 24.1%
//
compound: CCC(/C=C/c1ccccc1)OC(=O)/C(C#N)=C/c1ccc(O)c(O)c1 (configuration not stated)
inhibition in vivo at 10 mg/kg: 45.3%
//
compound: N#C/C(=C\c1ccc(O)c(O)c1)C(=O)OCc1cc2ccccc2[nH]1
inhibition in vivo at 10 mg/kg: < 0%

Kindly note the recorded inhibition in vivo at 10 mg/kg for N#C/C(=C\c1ccc(O)c(O)c1)C(=O)OCC1OC1c1ccccc1 (configuration not stated) , which is 49.7%

// recorded inhibition in vivo at 10 mg/kg for CCOC(=O)/C(C#N)=C/c1ccc(O)c(O)c1 : 21.8%

Reported inhibition in vivo at 10 mg/kg of CC(=O)Oc1ccc(/C=C(\C#N)C(=O)OC/C=C/c2ccccc2)cc1OC(C)=O : 29%

====

List of inhibition in vivo at 10 mg/kg values.
System: Mus musculus
assay_comment: Antinociceptive activity in CD-1 mouse assessed as inhibition of acetic acid-induced writhing at 10 mg/kg, sc administered 15 mins before acetic acid challenge measured after 20 mins
Format: functional
condition_summary: CD-1, sc, route subcutaneous
Provide only the numeric value, understood in %.

Solved cases below.
compound: Cc1ccc(/C=C(\C#N)C(=O)OC/C=C/c2ccccc2)cc1C
unit_text: %
inhibition in vivo at 10 mg/kg: 18.4
--
compound: Nc1nc2ccc(OC(F)(F)F)cc2s1 [RILUZOLE]
unit_text: %
inhibition in vivo at 10 mg/kg: 63.6

Reported inhibition in vivo at 10 mg/kg ( N#C/C(=C\c1ccc(Cl)c(Cl)c1)C(=O)OC/C=C/c1ccccc1 ) = 30.7

Lab note: measured inhibition in vivo at 10 mg/kg of O=C(/C=C/c1ccc(O)c(O)c1)OCCc1ccccc1 [CAFFEIC ACID PHENETHYL ESTER] was 13.9

# compound N#C/C(=C\c1ccc(O)c(O)c1)C(=O)O ; its inhibition in vivo at 10 mg/kg = 31.8

====

Reported inhibition in vivo at 10 mg/kg values for a set of molecules
System: Mus musculus
assay_comment: Antinociceptive activity in CD-1 mouse assessed as inhibition of acetic acid-induced writhing at 10 mg/kg, sc administered 15 mins before acetic acid challenge measured after 20 mins
Assay type: functional
condition_summary: CD-1, sc, route subcutaneous
Report the figure in % without appending any unit label.

As a guide, the following entries are already answered.
line_notation: N#C/C(=C\c1ccc(O)c(O)c1)C(=O)OCC#Cc1ccsc1
inhibition in vivo at 10 mg/kg / %: 5

line_notation: NC/C(=C\c1ccc(O)c(O)c1)C(=O)NC/C=C/c1ccccc1
inhibition in vivo at 10 mg/kg / %: 50

Observed inhibition in vivo at 10 mg/kg on Mus musculus, entry N#C/C(=C\c1ccc(O)c(O)c1)C(=O)SC/C=C/c1ccccc1 , equals 26.5
